FYI, the data here is from patent US20260285855A1.

Recorded Ki for the following compounds
SUBJECT_OF_TEST: DDR2 (Homo sapiens, UniProt Q16832)
Construct: purchased Life Technologies
ASSAY_PROCEDURE: LanthaScreen Europium Kinase Binding assay, DDR2
CONDITION_CONTEXT: 5 nM DDR2, 10 nM Kinase Tracer 178, 1 h at rt; Ki from IC50 by Cheng-Prusoff; read-out: Ki DDR2

STRUCTURE_NOTATION: Cn1ccn2ncc(C(=O)N3CC4(CC(NC(=O)Nc5cccc(CC(F)(F)F)c5)C4)C3)c12
RESULT: < 5 nM
//
STRUCTURE_NOTATION: Cc1ccc(OC(F)(F)F)cc1NC(=O)OC1CC2(C1)CN(C(=O)c1cnn3ccn(C)c13)C2
RESULT: < 5 nM

Tell me the measured Ki of `CN(C(=O)Nc1cc(C(C)(C)C(F)(F)F)on1)C1CC2(C1)CN(C(=O)c1cnn3ccn(C)c13)C2` , please.
5 to 25 nM

Tell me the measured Ki of `CN1CCN(c2ccn3ncc(C(=O)N4CC5(CC(NC(=O)Nc6cccc(C(F)(F)F)c6)C5)C4)c3c2)CC1` , please.
5 to 25 nM

Tell me the measured Ki of `O=C(Nc1cccc(OC(F)(F)F)c1)NC1CC2(C1)CN(C(=O)c1cnn3ccsc13)C2` , please.
< 5 nM

###

SUBJECT_OF_TEST: DDR2 (Homo sapiens, UniProt Q16832)
Construct: purchased Life Technologies
ASSAY_PROCEDURE: LanthaScreen Europium Kinase Binding assay, DDR2
CONDITION_CONTEXT: 5 nM DDR2, 10 nM Kinase Tracer 178, 1 h at rt; Ki from IC50 by Cheng-Prusoff; read-out: Ki DDR2
Recorded Ki for the following compounds

COMPOUND: O=C(Nc1cc(CO)cc(C(F)(F)F)c1)NC1CC2(C1)CN(C(=O)c1ncnc3ccsc13)C2 [Example 110]
SUBJECT_OF_TEST: DDR2 (Homo sapiens, UniProt Q16832)
Ki: < 5 nM
--
COMPOUND: CN(C(=O)Nc1cncc(C2CC2)c1)C1CC2(C1)CN(C(=O)c1cnn3ccn(C)c13)C2 [Example 157]
SUBJECT_OF_TEST: DDR2 (Homo sapiens, UniProt Q16832)
Ki: 5 to 25 nM
--
COMPOUND: Cn1ccn2ncc(C(=O)N3CC4(CC(CC(=O)Nc5cncc(C(F)(F)F)c5)C4)C3)c12 [Example 274]
SUBJECT_OF_TEST: DDR2 (Homo sapiens, UniProt Q16832)
Ki: 5 to 25 nM
--
COMPOUND: Cn1ccn2ncc(C(=O)N3CC4(CC(NC(=O)Nc5cc(C(F)(F)F)cc(C#N)n5)C4)C3)c12 [Example 168]
SUBJECT_OF_TEST: DDR2 (Homo sapiens, UniProt Q16832)
Ki: 5 to 25 nM

Tell me the measured Ki of Cn1ccn2ncc(C(=O)N3CC4(CC(NC(=O)Nc5ccc(F)c(C(F)(F)F)c5)C4)C3)c12 [Example 121] , please.
5 to 25 nM

Tell me the measured Ki of COc1ccc(OC(F)(F)F)cc1NC(=O)NC1CC2(C1)CN(C(=O)c1ncnc3ccsc13)C2 [Example 62] , please.
5 to 25 nM

Tell me the measured Ki of Cn1ccn2ncc(C(=O)N3CC4(CC(NC(=O)Nc5ccc(Cl)c(C(F)(F)F)c5)C4)C3)c12 [Example 108] , please.
5 to 25 nM

Tell me the measured Ki of Cn1ccn2ncc(C(=O)N3CC4(CC(OC(=O)Nc5cccc(C(F)(F)F)c5)C4)C3)c12 [Example 143] , please.
< 5 nM

Tell me the measured Ki of CN(C(=O)Nc1cc(OC(F)(F)F)ccn1)C1CC2(C1)CN(C(=O)c1cnn3cc(-c4cnn(C)c4)ccc13)C2 [Example 242] , please.
5 to 25 nM

###

SUBJECT_OF_TEST: DDR1 (Homo sapiens, UniProt Q08345)
Construct: purchased Carna Biosciences
Sequence (Q08345 19-913): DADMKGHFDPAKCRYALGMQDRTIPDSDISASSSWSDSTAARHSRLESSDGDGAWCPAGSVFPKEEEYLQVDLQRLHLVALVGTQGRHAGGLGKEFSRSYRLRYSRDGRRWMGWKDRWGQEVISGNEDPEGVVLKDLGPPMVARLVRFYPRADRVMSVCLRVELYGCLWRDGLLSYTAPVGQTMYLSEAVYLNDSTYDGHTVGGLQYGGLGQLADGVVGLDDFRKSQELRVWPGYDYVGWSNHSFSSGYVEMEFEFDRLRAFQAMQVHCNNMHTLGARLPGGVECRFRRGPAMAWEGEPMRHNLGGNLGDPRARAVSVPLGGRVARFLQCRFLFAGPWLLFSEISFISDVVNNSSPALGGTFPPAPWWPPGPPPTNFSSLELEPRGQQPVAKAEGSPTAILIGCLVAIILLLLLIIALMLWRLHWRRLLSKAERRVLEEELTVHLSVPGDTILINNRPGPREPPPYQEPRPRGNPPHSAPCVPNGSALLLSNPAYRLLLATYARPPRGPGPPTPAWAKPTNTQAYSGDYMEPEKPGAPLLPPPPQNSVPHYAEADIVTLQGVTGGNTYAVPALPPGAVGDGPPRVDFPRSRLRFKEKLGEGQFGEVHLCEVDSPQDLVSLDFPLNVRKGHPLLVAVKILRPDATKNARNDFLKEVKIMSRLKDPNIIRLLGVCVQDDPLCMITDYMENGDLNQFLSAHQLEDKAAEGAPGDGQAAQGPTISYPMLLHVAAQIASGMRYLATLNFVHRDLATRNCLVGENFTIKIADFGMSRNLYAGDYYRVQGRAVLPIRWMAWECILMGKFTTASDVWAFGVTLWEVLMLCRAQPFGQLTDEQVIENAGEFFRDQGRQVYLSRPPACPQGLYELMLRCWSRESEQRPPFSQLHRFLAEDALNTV
ASSAY_PROCEDURE: LanthaScreen Europium Kinase Binding assay, DDR1
CONDITION_CONTEXT: 5 nM DDR1, 20 nM Kinase Tracer 178, 1 h at rt; Ki from IC50 by Cheng-Prusoff; read-out: Ki DDR1
ATTRIBUTE_MEASURED: Ki

STRUCTURE_NOTATION: Cc1ncc(NC(=O)N(C)C2CC3(C2)CN(C(=O)c2cnn4ccn(C)c24)C3)cc1C(F)(F)F
RESULT: < 5 nM
//
STRUCTURE_NOTATION: [2H]C([2H])([2H])n1ccn2ncc(C(=O)N3CC4(CC(CC(=O)Nc5cc(OC(F)(F)F)ccn5)C4)C3)c12
RESULT: < 5 nM
//
STRUCTURE_NOTATION: CN(C(=O)Nc1cncc(OC(F)(F)F)c1)C1CC2(C1)CN(C(=O)c1cnn3ccn(C)c13)C2
RESULT: < 5 nM
//
STRUCTURE_NOTATION: O=C(Nc1cccc(C(F)(F)F)c1)NC1CC2(C1)CN(C(=O)c1cnn3cc(CNC4COC4)ccc13)C2
RESULT: < 5 nM
//
STRUCTURE_NOTATION: COCCn1ccn2ncc(C(=O)N3CC4(CC(N(C)C(=O)Nc5cc(OC(F)(F)F)ccn5)C4)C3)c12
RESULT: < 5 nM

Tell me the measured Ki of `CN(C(=O)Nc1cc(C(F)(F)F)ccn1)C1CC2(C1)CN(C(=O)c1cnn3cc(-c4cnn(C)c4)ccc13)C2` , please.
< 5 nM

Tell me the measured Ki of `CN(C)Cc1ccc(NC(=O)NC2CC3(C2)CN(C(=O)c2ncnc4ccsc24)C3)cc1C(F)(F)F` , please.
< 5 nM

Tell me the measured Ki of `CN(C(=O)Nc1cc(OC(F)(F)F)ccn1)C1CC2(C1)CN(C(=O)c1cnn3ccccc13)C2` , please.
< 5 nM

###

SUBJECT_OF_TEST: DDR2 (Homo sapiens, UniProt Q16832)
Construct: purchased Life Technologies
ASSAY_PROCEDURE: LanthaScreen Europium Kinase Binding assay, DDR2
CONDITION_CONTEXT: 5 nM DDR2, 10 nM Kinase Tracer 178, 1 h at rt; Ki from IC50 by Cheng-Prusoff; read-out: Ki DDR2
ATTRIBUTE_MEASURED: Ki

Sample answers from the record:
STRUCTURE_NOTATION: COc1ccc(OC(F)(F)F)cc1NC(=O)CC1CC2(C1)CN(C(=O)c1cnn3ccn(C)c13)C2
SUBJECT_OF_TEST: DDR2 (Homo sapiens, UniProt Q16832)
Ki: < 5 nM
//
STRUCTURE_NOTATION: CN(C(=O)Nc1cncc(OC(F)(F)F)c1)C1CC2(C1)CN(C(=O)c1ncnc3[nH]ccc13)C2
SUBJECT_OF_TEST: DDR2 (Homo sapiens, UniProt Q16832)
Ki: 5 to 25 nM
//
STRUCTURE_NOTATION: COc1ccc(OC(F)(F)F)cc1NC(=O)CC1CC2(C1)CN(C(=O)c1ccnc3ccsc13)C2
SUBJECT_OF_TEST: DDR2 (Homo sapiens, UniProt Q16832)
Ki: < 5 nM

Tell me the measured Ki of `Cc1nc(NC(=O)N(C)C2CC3(C2)CN(C(=O)c2cnn4ccsc24)C3)cc(C(F)(F)F)n1` , please.
5 to 25 nM

Tell me the measured Ki of `O=C(Nc1cncc(C(F)(F)F)c1)NC1CC2(C1)CN(C(=O)c1cnn3ccsc13)C2` , please.
5 to 25 nM

Tell me the measured Ki of `O=C(Nc1cccc(C(F)(F)F)c1)NC1CC2(C1)CN(C(=O)c1ncnc3[nH]ncc13)C2` , please.
< 5 nM

Tell me the measured Ki of `COc1ccc(OC(F)(F)F)cc1NC(=O)NC1CC2(C1)CN(C(=O)c1cnc3cnccn13)C2` , please.
5 to 25 nM

Tell me the measured Ki of `Cc1ccc(OC(F)(F)F)cc1NC(=O)NC1CC2(C1)CN(C(=O)c1cnn3ccn(C)c13)C2` , please.
5 to 25 nM

Tell me the measured Ki of `Cc1cc(C(F)(F)F)cc(NC(=O)N(C)C2CC3(C2)CN(C(=O)c2cnn4ccn(C)c24)C3)c1F` , please.
5 to 25 nM

Tell me the measured Ki of `O=C(CC1CC2(C1)CN(C(=O)c1cnn3ccn(C(F)F)c13)C2)Nc1cc(OC(F)(F)F)ccn1` , please.
< 5 nM

Tell me the measured Ki of `O=C(Nc1cccc(C(F)(F)F)c1)NC1CC2(C1)CN(c1ccnc3[nH]ncc13)C2` , please.
< 5 nM

###

Recorded pKi for the following molecules
SUBJECT_OF_TEST: DDR2 (Homo sapiens, UniProt Q16832)
Construct: purchased Life Technologies
Sequence (Q16832 22-855): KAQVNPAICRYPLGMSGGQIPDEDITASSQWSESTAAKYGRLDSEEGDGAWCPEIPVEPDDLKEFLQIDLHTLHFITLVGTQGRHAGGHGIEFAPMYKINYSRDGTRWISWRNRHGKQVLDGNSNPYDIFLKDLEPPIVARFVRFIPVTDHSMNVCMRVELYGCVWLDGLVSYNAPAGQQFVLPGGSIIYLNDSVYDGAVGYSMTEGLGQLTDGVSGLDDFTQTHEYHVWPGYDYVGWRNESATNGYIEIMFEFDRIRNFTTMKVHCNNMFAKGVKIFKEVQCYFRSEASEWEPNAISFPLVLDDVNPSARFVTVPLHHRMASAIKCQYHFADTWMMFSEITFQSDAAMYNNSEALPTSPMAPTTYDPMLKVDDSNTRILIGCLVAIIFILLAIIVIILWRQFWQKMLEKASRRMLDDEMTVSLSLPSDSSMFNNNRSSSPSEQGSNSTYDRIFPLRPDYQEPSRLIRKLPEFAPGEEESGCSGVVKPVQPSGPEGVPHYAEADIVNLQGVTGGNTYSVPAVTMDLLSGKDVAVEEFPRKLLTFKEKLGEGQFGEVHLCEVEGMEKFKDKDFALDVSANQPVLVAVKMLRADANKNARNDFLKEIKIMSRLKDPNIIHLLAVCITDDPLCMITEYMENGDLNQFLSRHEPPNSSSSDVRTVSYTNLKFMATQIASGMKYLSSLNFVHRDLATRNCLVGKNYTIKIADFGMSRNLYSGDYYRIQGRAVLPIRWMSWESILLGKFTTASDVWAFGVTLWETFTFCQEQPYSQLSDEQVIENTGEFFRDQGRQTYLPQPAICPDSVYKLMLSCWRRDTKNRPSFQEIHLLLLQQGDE
ASSAY_PROCEDURE: LanthaScreen Europium Kinase Binding assay, DDR2
CONDITION_CONTEXT: 5 nM DDR2, 10 nM Kinase Tracer 178, 1 h at rt; Ki from IC50 by Cheng-Prusoff; read-out: Ki DDR2
pKi: −log10 of the molar value.

Sample answers from the record:
STRUCTURE_NOTATION: COc1cccc(NC(=O)NC2CC3(C2)CN(C(=O)c2cnn4ccsc24)C3)c1
SUBJECT_OF_TEST: DDR2 (Homo sapiens, UniProt Q16832)
RESULT: < 7.00
--
STRUCTURE_NOTATION: O=C(Nc1cccc(C(F)(F)F)c1)NC1CC2(C1)CN(C(=O)c1cnn3ccn(CC4COC4)c13)C2
SUBJECT_OF_TEST: DDR2 (Homo sapiens, UniProt Q16832)
RESULT: 7.60 to 8.30
--
STRUCTURE_NOTATION: COc1cc(-c2ccc3c(C(=O)N4CC5(CC(N(C)C(=O)Nc6cncc(C(F)(F)F)c6)C5)C4)cnn3c2)ccn1
SUBJECT_OF_TEST: DDR2 (Homo sapiens, UniProt Q16832)
RESULT: 7.60 to 8.30
--
STRUCTURE_NOTATION: CCc1ncc(C(F)(F)F)cc1NC(=O)NC1CC2(C1)CN(C(=O)c1cnn3ccn(C)c13)C2
SUBJECT_OF_TEST: DDR2 (Homo sapiens, UniProt Q16832)
RESULT: 7.60 to 8.30
--
STRUCTURE_NOTATION: CCOc1ccc(C(F)(F)F)cc1NC(=O)NC1CC2(C1)CN(C(=O)c1cnn3ccn(C)c13)C2
SUBJECT_OF_TEST: DDR2 (Homo sapiens, UniProt Q16832)
RESULT: > 8.30
--
STRUCTURE_NOTATION: COc1ccc(CC(F)(F)F)cc1NC(=O)NC1CC2(C1)CN(C(=O)c1cnn3ccn(C)c13)C2
SUBJECT_OF_TEST: DDR2 (Homo sapiens, UniProt Q16832)
RESULT: 7.60 to 8.30

Tell me the measured pKi of `CN(C(=O)Nc1cccc(C(F)(F)F)c1)C1CC2(C1)CN(C(=O)c1ncnc3[nH]ccc13)C2` , please.
7.60 to 8.30
